Reference source for all entries: PubChem BioAssay AID256

Kindly state T/C for each of the entries shown.
System: CD2F1 mice, L1210 leukemia ip, survival T/C
Assay: NCI In Vivo Anticancer Drug Screen. Data for tumor model L1210 Leukemia (intraperitoneal) in CD2F1 (CDF1) mice
Details: endpoint: mean survival time; dose: 25.0 mg/kg/injection; schedule: Q04DX002 (ip); vehicle: saline; higher = longer survival
Protocol: The antitumor activity of compounds was measured in mice bearing transplantable tumors. Survival or tumor size were measured and the results are expressed as the measurement made in the treated group (T) divided by the measurement made in the vehicle treated control group (C). The tumor model used in this assay is L1210 Leukemia (intraperitoneal) in CD2F1 (CDF1) mice
Inconclusive results and toxic doses are left out.

INPUT: I am curious: what T/C value has been reported for COc1cc2c(cc1O)-c1cc3ccc(OC)c(OC)c3c[n+]1CC2 ?
OUTPUT: 111 % of control

INPUT: Now consider C[S+](C)c1ccccc1 .
OUTPUT: 96 % of control

INPUT: # repeat for NC(CCl)=NCC1C2CC3CC(C2)CC1C3 (stereo not drawn)
OUTPUT: 90 % of control

INPUT: How about O=C1OC(=O)C2C3C=CC(O3)C12 (stereo not drawn) ?
OUTPUT: 104 % of control

INPUT: Entry CC1(C)NC(=O)C2CC21C (stereo not drawn) please
OUTPUT: 96 % of control

INPUT: Please give the result for CCN(CC)CCNc1cc(OC)cc2cccnc12 too.
OUTPUT: 95 % of control

INPUT: Also check CN(C)c1cccc(C(C)(C)C)n1
OUTPUT: 106 % of control

INPUT: Try the compound N.N.N.N.N.N#CN=C(N)N.[Co+3].[O-][Cl+3]([O-])([O-])[O-]
OUTPUT: 97 % of control
